Entries and their self-cleavage values follow.
B1: LINE1-mini (parent)
chain: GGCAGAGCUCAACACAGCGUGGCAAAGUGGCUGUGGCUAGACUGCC

# Variants of: B1
# test-name: self-cleavage, relative activity (ratio to wild type); higher = more cleavage; in vitro, sequencing; the parent is a self-cleaving ribozyme

Use these answered entries as a reference point.
mutation_notation="G5C A39G" metric_name=self-cleavage readout_value=0.07
mutation_notation="C31G C46A" metric_name=self-cleavage readout_value=0.06
mutation_notation="A25G G36U" metric_name=self-cleavage readout_value=0.05
mutation_notation="G33C G35A" metric_name=self-cleavage readout_value=0.04
mutation_notation="C13A G33C" metric_name=self-cleavage readout_value=0.06

Ask: Report self-cleavage for A26C G44A please.
Reply: 0.87
